Numbers sourced from patent US20240254089A1.

Provide the recorded pIC50 for the entries that follow.
# measured_on: human MRGPR X4 (Homo sapiens)
# Construct: expressed in transfected cells
# Sequence (Q96LA9 whole entry): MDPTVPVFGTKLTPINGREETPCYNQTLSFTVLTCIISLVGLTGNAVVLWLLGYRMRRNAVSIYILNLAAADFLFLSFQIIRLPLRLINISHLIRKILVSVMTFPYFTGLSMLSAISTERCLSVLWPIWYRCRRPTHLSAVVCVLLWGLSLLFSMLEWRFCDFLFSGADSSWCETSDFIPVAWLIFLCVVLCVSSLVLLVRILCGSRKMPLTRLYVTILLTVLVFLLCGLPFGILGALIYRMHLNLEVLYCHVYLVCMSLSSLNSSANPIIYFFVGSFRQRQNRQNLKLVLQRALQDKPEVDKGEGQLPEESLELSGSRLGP
# experimental_protocol: MRGPR X4 antagonist activity, IP-One Gq HTRF assay in stably transfected HEK cells
# Type: cell-based
pIC50: −log10 of the molar value.

INSERT INTO assay_data (compound, quantity_name, reported) VALUES
  ('O=C(NCCc1nnc2ccccn12)c1nn(Cc2csc(-c3ccccc3)n2)c2ccccc12 [Compound 512]', 'pIC50', '6.30 to 7.00'),
  ('Cc1ccc(Cn2nc(C(=O)NCCc3nnc4n3CCCCC4)c3c(C#N)cccc32)cc1 [Compound 26]', 'pIC50', '> 7.00'),
  ('COc1ccc(CCNC(=O)c2cn(Cc3ccc(Cl)cc3)c3ccccc23)cc1 [Compound 182]', 'pIC50', '6.30 to 7.00'),
  ('CC(C)(CNC(=O)c1cn(Cc2ccc(Cl)cc2)c2ccccc12)c1cccnc1 [Compound 233]', 'pIC50', '< 5.60'),
  ('O=C(NCCc1cccnc1)c1nn(Cc2ccccc2F)c2ccccc12 [Compound 125]', 'pIC50', '< 5.60'),
  ('O=C(NCCc1nnc2n1CCCCC2)c1nn(Cc2ccc(OC(F)F)cc2)c2ccccc12 [Compound 24]', 'pIC50', '> 7.00');

Respectfully, I request pIC50 for each entry included below.
1. O=C(NCCc1ccc(C(F)(F)F)nc1)c1nn(Cc2ccc(Cl)cc2)c2ccccc12 [Compound 86]
2. O=C(NCCc1nnc2ccccn12)c1nn(Cc2ccc(Cl)cc2)c2c(F)cccc12 [Compound 540]
3. COc1ccc(Cn2nc(C(=O)NCCc3cccnc3)c3ccccc32)cc1 [Compound 66]
4. O=C(O)c1nn(Cc2ccc(Cl)cc2)c2ccccc12 [Compound 319]
5. O=C(NCc1cccc2[nH]ncc12)c1nn(Cc2ccc(Cl)cc2)c2ccccc12 [Compound 387]
6. COc1ccc(Cn2cc(C(=O)NCCc3ccc(Cl)c(F)c3)c3ccccc32)cc1 [Compound 218]
7. Cc1[nH]c2ccc(O)cc2c1CCNC(=O)c1nn(Cc2ccc(Cl)cc2)c2ccc(F)cc12 [Compound 534]

**Result**
1: 6.00 to 6.30; 2: > 7.00; 3: 6.30 to 7.00; 4: 5.60 to 6.00; 5: < 5.60; 6: 5.60 to 6.00; 7: > 7.00

Respectfully, I request pIC50 for each entry included below.
1. CC(=O)Nc1ccc(CNC(=O)c2nn(Cc3ccc(Cl)cc3)c3ccccc23)cc1 [Compound 374]
2. CC(c1ccc(Cl)cc1)n1nc(C(=O)NCCc2nnc3n2CCCCC3)c2ccccc21 (centres unmarked) [Compound 74]

**Result**
["< 5.60", "6.00 to 6.30"]

Respectfully, I request pIC50 for each entry included below.
1. O=C(NCCn1cc(C2CC2)nn1)c1nn(Cc2ccc(Cl)cc2)c2ccccc12 [Compound 138]
2. Cc1ccc2nc(Cn3nc(C(=O)NCCc4nnc5ccccn45)c4ccccc43)n(C)c2c1 [Compound 568]

**Result**
1. > 7.00
2. 6.00 to 6.30
